Target: cynomolgus monkey (cyno) TIGIT protein (cynomolgus monkey, UniProt A0A7N9I9V4 89-209)
Sequence (A0A7N9I9V4 entry or part of it): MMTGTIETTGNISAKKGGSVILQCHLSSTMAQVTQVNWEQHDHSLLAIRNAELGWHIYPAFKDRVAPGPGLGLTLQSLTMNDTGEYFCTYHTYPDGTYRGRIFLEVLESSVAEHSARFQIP
Experiment: SPR, captured mAb
Text: Briefly, a series S CM5 biosensor chip was activated with N-ethyl-N′-(3-dimethylaminopropyl)-carbodiimide hydrochloride (EDC) and N-hydroxysuccinimide (NHS) reagents according to the supplier's (GE Healthcare Biosciences, Piscataway, N.J.) instructions, and a human antibody capture kit was applied to couple goat anti-human Fc IgGs in order to achieve approximately 10,000 response units (RU) on each flow cell, followed by blocking un-reacted groups with 1M ethanolamine. […]
Each record is given Condition met if its reported koff is strictly below 0.0006 s⁻¹. Records at or above 0.0006 s⁻¹ are given Condition not met.

* h15C8.L4H1 (antibody, V domains shown, VL: F87Y against h15C8.L1H1; FR/HVR pieces) VH: EVQLVQSGAEVKKPGASVKVSCKASGYTFTEHSIYWLRQAPGQRLEIIGRIDPKNGRTYFVDKFKNRATLTTDTSASTAYMELSSLRSEDTAVYFCARIDGFYFDFWGQGTLVTVSS VL: DIQLTQSPSFLSASVGDRVTITCKGSQNVNKYLVWYQQKPGKAPKLLIYSTDNLQSGIPSRFSGSGSGTEYTLTISSLQPEDFATYYCYQYNNGFTFGQGTKVEIK | Condition met
* h7E7.L3H1 (antibody, V domains shown, VL: Y71F against h7E7.L1H1; FR/HVR pieces) VH: EVQLVQSGAEVKKPGASVKVSCKASGYTFTEYSIYWVRQAPGQRLEIIGRIDPKNGRTYYVDKFKNRATLTADTSASTAYMELSSLRSEDTAVYFCTRIYGFYFDFWGQGTLVTVSS VL: DIQLTQSPSFLSASVGDRVTITCKGSQNVNKYLVWYQQKPGKAPKLLIYNTDNLQSGIPSRFSGSGSGTEFTLTISSLQPEDFATYFCYQYNNGFTFGQGTKVEIK | Condition not met
* h15C8.L1H1 (antibody, V domains shown, First humanized version; FR/HVR pieces in order; also called h1.15C8.L1H1) VH: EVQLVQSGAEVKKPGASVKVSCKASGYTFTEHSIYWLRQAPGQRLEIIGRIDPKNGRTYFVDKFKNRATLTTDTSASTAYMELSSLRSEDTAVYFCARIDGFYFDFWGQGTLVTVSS VL: DIQLTQSPSFLSASVGDRVTITCKGSQNVNKYLVWYQQKPGKAPKLLIYSTDNLQSGIPSRFSGSGSGTEYTLTISSLQPEDFATYFCYQYNNGFTFGQGTKVEIK | Condition met
* h7E7.L1H3 (antibody, V domains shown, VH: I48M against h7E7.L1H1; FR/HVR pieces) VH: EVQLVQSGAEVKKPGASVKVSCKASGYTFTEYSIYWVRQAPGQRLEIMGRIDPKNGRTYYVDKFKNRATLTADTSASTAYMELSSLRSEDTAVYFCTRIYGFYFDFWGQGTLVTVSS VL: DIQLTQSPSFLSASVGDRVTITCKGSQNVNKYLVWYQQKPGKAPKLLIYNTDNLQSGIPSRFSGSGSGTEYTLTISSLQPEDFATYFCYQYNNGFTFGQGTKVEIK | Condition met
* h10A5.L1H1 (antibody, V domains shown, Humanized; FR/HVR pieces in order; also called h1.10A5.L1H1) VH: EVTLKESGPALVKPTQTLTLTCTFSGFSLTTYGMGVSWIRQPPGKALEWLASIWWNGNTYYNPSLRSRLTVTKDTSKNQAVLTMTNMDPVDTATYYCAHTGGAVITWFAYWGQGTLVTVSS VL: EIVMTQSPATLSVSPGERATLSCKASQSVGKNIAWYQQKPGQSPRLLIYYASNRYTGVPARFSGSGSGTEFTLTISSLQSEDFAVYYCQHIYNSPYPFGQGTKVEIK | Condition not met
